# Test system: HeLa Kyoto;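 further: HeLa Kyoto cells synchronized by double thymidine or nocodazole block, proteins quantified by TMT10plex mass spectrometry, three independent biological replicates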
# ASSAY_METHOD_TEXT: melting temperature (median over replicates), in situ; higher = more thermally stable
# EXPERIMENTAL_CONDITIONS: cell cycle stage: G1/S

- BIOPOLYMER_SEQUENCE: "MTLEAIRYSRGSLQILDQLLLPKQSRYEAVGSVHQAWEAIRAMKVRGAPAIALVGCLSLAVELQAGAGGPGLAALVAFVRDKLSFLVTARPTAVNMARAARDLADVAAREAEREGATEEAVRERVICCTEDMLEKDLRDNRSIGDLGARHLLERVAPSGGKVTVLTHCNTGALATAGYGTALGVIRSLHSLGRLEHAFCTETRPYNQGARLTAFELVYEQIPATLITDSMVAAAMAHRGVSAVVVGADRVVANGDTANKVGTYQLAIVAKHHGIPFYVAAPSSSCDLRLETGKEIIIEERPGQELTDVNGVRIAAPGIGVWNPAFDVTPHDLITGGIITELGVFAPEELRTALTTTISSRDGTLDGPQM [MRI1]"
  melting temperature [°C]: 52.5
- BIOPOLYMER_SEQUENCE: "MASQLQNRLRSALALVTGAGSGIGRAVSVRLAGEGATVAACDLDRAAAQETVRLLGGPGSKEGPPRGNHAAFQADVSEARAARCLLEQVQACFSRPPSVVVSCAGITQDEFLLHMSEDDWDKVIAVNLKGTFLVTQAAAQALVSNGCRGSIINISSIVGKVGNVGQTNYAASKAGVIGLTQTAARELGRHGIRCNSVLPGFIATPMTQKVPQKVVDKITEMIPMGHLGDPEDVADVVAFLASEDSGYITGTSVEVTGGLFM [HSD17B8]"
  melting temperature [°C]: 55.3
- BIOPOLYMER_SEQUENCE: "MEIPPTNYPASRAALVAQNYINYQQGTPHRVFEVQKVKQASMEDIPGRGHKYHLKFAVEEIIQKQVKVNCTAEVLYPSTGQETAPEVNFTFEGETGKNPDEEDNTFYQRLKSMKEPLEAQNIPDNFGNVSPEMTLVLHLAWVACGYIIWQNSTEDTWYKMVKIQTVKQVQRNDDFIELDYTILLHNIASQEIIPWQMQVLWHPQYGTKVKHNSRLPKEVQLE [LXN]"
  melting temperature [°C]: 51.9

Reference for the values: the supplement of paper PMC5998384
